# system: T1, CD70 on cells (CHO-CD70, JVM-3, U266, Raji, THP-1, T cells) (human, UniProt P32970 1-193)
# T1 construct: whole, on cells; also called cell-surface CD70
# T1 sequence (looked up): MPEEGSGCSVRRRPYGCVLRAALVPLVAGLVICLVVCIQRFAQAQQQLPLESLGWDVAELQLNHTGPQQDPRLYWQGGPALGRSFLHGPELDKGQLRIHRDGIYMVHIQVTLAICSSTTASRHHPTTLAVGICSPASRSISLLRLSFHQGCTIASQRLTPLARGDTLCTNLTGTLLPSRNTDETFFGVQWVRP
# experimental-protocol: 1.25 µg/mL scFv on U266 cells
Reported cell binding is given for each of the following binders.

- binder: "37-TC7-VII-D05 (scFv, His-tagged) scFv: QMQLVQSGGGVVQPGRSLRLSCAASGFTFSSYAMHWVRQAPGKGLEWVAVISYDGSNKYYADSVKGRFTISRDNSKNTLYLQMNSLRAEDTAVYYCARDALWDTATFDYWGQGTLVTVSSGGSGGSGGSGGSSSELTQDPAVSVALGQTVRITCQGDSLRSYYASWYQQKPGQAPVLVIYGKNNRPSGIPDRFSGSSSGNTASLTITGAQAEDEADYYCNSRDSSGNPWVFGGGTKLTVL"
  cell binding: 15900
- binder: "61-TC7-IV-H08 (scFv, His-tagged) scFv: QMQLVQSGGGLVQPGRSLRLSCAASGFTFDDYAMHWVRQAPGKGLEWVAVISYDGSNKYYADSVKGRFTISRDNSKNTLYLQMNSLRAEDTAVYYCARSSYDFWSGYPKDMDVWGKGTTVTVSSGGSGGSGGSGGSSSELTQDPAVSVALGQTVRITCQGDSLRSYYASWYQQKPGQAPVLVIYGKNNRPSGIPDRFSGSSSGNTASLTITGAQAEDEADYYCNSRDSSGNHLVVFGGGTKLTVL"
  cell binding: 947
